# Tested Target: Histone-lysine N-methyltransferase, H3 lysine-36 specific (Homo sapiens)
# Method Summary: Inhibition of human recombinant NSD1 incubated for 2 hrs by AlphaLISA method
Threshold 200 nM. IC50 below it: fulfilled. IC50 at it or above: not fulfilled.

Use these answered entries as a reference point.
COC[C@@]1(N)CCCN(c2cnc(-c3ccc(F)c(F)c3)cc2Cn2cnc3c(N)ncnc32)C1: fulfilled
COC[C@@]1(N)CCCN(c2cnc(-c3cc(Cl)ccc3F)cc2Cn2cnc3c(N)ncnc32)C1: not fulfilled
Nc1ncnc2c1ncn2Cc1cc(-c2ccc(F)c(F)c2)ncc1N1CCC[C@](N)(COC2CC2)C1: not fulfilled
COc1ccc(-c2cc(Cn3cnc4c(N)ncnc43)c(N3CCC[C@](N)(COC4CCC4)C3)cn2)cc1F: not fulfilled

Strictly below 200 nM: is that where IC50 of `COC[C@@]1(N)CCCN(c2cnc(-c3ccc(F)cc3F)cc2Cn2cnc3c(N)ncnc32)C1` sits? not fulfilled

* * *

Lab note: pKd readings collected with Histone-lysine N-methyltransferase, H3 lysine-36 specific (Homo sapiens, UniProt Q96L73) for the following compounds.
Where a name gives a salt, the structure may show the parent alone.
Scale for pKd: -log10 of concentration given in mol/L; no unit attached.

CCN(CC)CCCC(C)Nc1c2ccc(Cl)cc2nc2ccc(OC)cc12 (stereo not drawn) [QUINACRINE DIHYDROCHLORIDE]: 5.85
O=C1c2c(O)ccc(O)c2C(=O)C2C(NCCNCCO)=CC=C(NCCNCCO)C12 (stereo not drawn): 5.92

Proceed to the following item.
// fetch pKd given entry CCN(CC)CCCC(C)Nc1ccnc2cc(Cl)ccc12 (stereo not drawn) [CHLOROQUINE PHOSPHATE] 5.33

* * *

# Tested Target: Histone-lysine N-methyltransferase NSD2 (Homo sapiens, UniProt O96028, E1099K)
# Sequence (O96028 whole entry E1099K): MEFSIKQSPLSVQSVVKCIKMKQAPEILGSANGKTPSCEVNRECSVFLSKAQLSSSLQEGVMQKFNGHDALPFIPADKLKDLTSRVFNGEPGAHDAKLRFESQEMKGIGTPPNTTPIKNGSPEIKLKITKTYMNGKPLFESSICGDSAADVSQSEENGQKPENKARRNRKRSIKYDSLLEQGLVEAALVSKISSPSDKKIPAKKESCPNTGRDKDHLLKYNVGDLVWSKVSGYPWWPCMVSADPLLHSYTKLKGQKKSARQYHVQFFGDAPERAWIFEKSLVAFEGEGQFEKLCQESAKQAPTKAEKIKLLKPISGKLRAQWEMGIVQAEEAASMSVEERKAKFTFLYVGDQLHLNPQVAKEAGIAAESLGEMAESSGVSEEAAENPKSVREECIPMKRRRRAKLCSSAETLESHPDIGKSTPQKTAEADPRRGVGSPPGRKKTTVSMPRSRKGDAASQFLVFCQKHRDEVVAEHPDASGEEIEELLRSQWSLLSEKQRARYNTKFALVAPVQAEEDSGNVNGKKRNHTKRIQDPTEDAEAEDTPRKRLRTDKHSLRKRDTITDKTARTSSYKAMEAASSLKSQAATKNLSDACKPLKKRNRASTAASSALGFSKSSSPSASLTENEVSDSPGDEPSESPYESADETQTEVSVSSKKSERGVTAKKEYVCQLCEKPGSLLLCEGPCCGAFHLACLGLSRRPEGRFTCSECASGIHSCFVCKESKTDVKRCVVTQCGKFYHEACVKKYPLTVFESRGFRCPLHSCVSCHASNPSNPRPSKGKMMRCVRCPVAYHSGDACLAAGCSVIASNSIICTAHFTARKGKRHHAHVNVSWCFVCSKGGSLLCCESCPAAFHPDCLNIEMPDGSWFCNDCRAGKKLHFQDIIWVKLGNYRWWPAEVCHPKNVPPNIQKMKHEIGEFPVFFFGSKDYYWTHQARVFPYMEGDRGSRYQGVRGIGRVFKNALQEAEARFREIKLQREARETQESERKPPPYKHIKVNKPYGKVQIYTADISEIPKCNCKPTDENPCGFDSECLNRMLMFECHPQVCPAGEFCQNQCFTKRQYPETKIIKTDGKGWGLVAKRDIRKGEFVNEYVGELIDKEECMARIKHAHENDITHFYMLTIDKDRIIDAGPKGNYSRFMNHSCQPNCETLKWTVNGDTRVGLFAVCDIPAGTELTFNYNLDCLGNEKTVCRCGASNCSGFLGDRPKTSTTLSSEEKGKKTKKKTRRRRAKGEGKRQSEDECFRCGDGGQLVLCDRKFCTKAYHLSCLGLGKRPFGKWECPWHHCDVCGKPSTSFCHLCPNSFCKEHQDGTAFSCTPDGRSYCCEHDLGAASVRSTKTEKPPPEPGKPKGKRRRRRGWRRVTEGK
# Method Summary: Inhibition of NSD2 E1099K mutant (unknown origin)
Quantity Name: IC50 (nM)
Could you give me the number in nM? Just the number is fine.

// fetch IC50 given entry `O=C1C(Cl)=C(NCCN2CCOCC2)C(=O)c2ncccc21` 110

* * *

# Tested Target: UniProt Q96L73
# Method Summary: Inhibition of human recombinant NSD1 ([…] residues) expressed in Escherichia coli BL21 (DE3) incubated for 4 hrs by scintillation/filter assay
Quantity Name: IC50 (µM)
Could you give me the number in µM? Just the number is fine.

// fetch IC50 given entry `COc1cc2nc(N3CCCN(C)CC3)nc(NC3CCN(Cc4ccccc4)CC3)c2cc1OC` 112

* * *

# Tested Target: Histone-lysine N-methyltransferase NSD3 (Homo sapiens, UniProt Q9BZ95)
# Sequence (Q9BZ95 whole entry, the tested form may be a part): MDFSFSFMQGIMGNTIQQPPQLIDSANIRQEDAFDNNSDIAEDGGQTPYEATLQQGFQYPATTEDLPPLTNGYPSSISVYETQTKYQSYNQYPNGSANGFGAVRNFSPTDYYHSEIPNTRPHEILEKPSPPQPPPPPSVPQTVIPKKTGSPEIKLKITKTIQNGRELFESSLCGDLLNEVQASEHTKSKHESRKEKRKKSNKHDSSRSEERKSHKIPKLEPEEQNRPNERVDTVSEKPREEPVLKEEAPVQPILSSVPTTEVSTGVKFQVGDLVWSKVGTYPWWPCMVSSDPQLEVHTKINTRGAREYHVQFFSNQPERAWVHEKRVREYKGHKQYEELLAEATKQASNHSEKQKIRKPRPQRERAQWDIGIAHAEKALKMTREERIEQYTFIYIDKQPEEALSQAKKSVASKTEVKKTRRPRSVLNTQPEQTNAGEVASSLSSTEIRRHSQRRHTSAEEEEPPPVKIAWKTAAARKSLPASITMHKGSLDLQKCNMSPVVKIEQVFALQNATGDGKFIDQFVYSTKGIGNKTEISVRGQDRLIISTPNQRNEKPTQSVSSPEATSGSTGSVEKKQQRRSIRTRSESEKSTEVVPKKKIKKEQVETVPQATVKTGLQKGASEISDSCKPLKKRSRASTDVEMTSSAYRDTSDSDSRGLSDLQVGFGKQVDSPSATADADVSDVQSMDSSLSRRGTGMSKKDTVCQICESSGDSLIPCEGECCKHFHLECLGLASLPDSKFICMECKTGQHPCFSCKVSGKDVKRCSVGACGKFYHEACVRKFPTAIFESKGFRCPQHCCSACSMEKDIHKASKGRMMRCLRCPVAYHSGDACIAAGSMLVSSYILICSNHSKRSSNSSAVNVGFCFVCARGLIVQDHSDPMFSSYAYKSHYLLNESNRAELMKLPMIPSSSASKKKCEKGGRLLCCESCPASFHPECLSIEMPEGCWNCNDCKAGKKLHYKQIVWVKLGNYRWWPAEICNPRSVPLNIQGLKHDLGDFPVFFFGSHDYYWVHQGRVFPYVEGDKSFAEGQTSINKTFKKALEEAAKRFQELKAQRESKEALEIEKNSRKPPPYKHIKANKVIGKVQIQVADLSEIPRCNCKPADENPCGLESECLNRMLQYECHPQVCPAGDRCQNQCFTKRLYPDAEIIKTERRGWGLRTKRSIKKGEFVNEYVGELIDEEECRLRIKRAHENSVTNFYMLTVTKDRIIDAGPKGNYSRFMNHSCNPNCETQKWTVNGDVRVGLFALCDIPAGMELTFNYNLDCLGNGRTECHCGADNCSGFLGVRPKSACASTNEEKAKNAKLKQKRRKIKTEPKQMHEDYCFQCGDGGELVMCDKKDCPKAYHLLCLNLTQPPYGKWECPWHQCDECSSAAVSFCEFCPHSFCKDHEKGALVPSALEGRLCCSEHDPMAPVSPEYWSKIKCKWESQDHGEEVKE
# Method Summary: Antagonist activity against recombinant human GST-tagged NSD3 PWWP1 domain (247 to 398 residues) expressed in Escherichia coli BL21(DE3) incubated for 60 mins by TR-FRET assay
Quantity Name: pIC50
Scale for pIC50: -log10 of concentration given in mol/L; no unit attached.

// fetch pIC50 given entry `Cc1cc(CN2CCC(N)CC2)cc(C)c1-c1ncn(C)c1-c1ccc(C#N)c2ccccc12` 6.96

* * *

# Tested Target: Histone-lysine N-methyltransferase, H3 lysine-36 specific (Homo sapiens)
# Method Summary: Inhibition of N-terminal hexa-histidine tagged NSD1 SET domain (1852 to 2105 residues) (unknown origin) expressed in Escherichia coli incubated for 2 hrs by ITC method
Quantity Name: IC50

// fetch IC50 given entry `N#CSc1cc(O)c2nc(N)sc2c1` < 20 µM

* * *

# Tested Target: von Hippel-Lindau disease tumor suppressor/Histone-lysine N-methyltransferase NSD3 (Homo sapiens, UniProt P40337+Q9BZ95)
# Sequence (Q9BZ95 whole entry): as the sequence (Q9BZ95 whole entry, the tested form may be a part) above
# Sequence (P40337 whole entry): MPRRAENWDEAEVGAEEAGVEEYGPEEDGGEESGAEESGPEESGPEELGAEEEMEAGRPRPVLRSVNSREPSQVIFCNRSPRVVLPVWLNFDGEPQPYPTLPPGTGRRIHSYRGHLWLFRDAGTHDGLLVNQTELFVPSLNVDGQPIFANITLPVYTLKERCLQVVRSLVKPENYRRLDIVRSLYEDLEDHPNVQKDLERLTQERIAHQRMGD
# Method Summary: Protac activity at VHL/NSD3 in human MOLM-13 cells assessed as induction of NSD3 degradation incubated for 6 hrs by immunoblotting analysis
Quantity Name: EC50 (µM)
Could you give me the number in µM? Just the number is fine.

// fetch EC50 given entry `Cc1cc(CNCCCC(=O)NCCCCCCCCC(=O)N[C@H](C(=O)N2C[C@H](O)C[C@H]2C(=O)N[C@@H](C)c2ccc(-c3scnc3C)cc2)C(C)(C)C)cc(C)c1-c1ncn(C)c1-c1ccnc2cc(F)ccc12` 4.9

* * *

# Tested Target: UniProt O96028
# Sequence (whole entry): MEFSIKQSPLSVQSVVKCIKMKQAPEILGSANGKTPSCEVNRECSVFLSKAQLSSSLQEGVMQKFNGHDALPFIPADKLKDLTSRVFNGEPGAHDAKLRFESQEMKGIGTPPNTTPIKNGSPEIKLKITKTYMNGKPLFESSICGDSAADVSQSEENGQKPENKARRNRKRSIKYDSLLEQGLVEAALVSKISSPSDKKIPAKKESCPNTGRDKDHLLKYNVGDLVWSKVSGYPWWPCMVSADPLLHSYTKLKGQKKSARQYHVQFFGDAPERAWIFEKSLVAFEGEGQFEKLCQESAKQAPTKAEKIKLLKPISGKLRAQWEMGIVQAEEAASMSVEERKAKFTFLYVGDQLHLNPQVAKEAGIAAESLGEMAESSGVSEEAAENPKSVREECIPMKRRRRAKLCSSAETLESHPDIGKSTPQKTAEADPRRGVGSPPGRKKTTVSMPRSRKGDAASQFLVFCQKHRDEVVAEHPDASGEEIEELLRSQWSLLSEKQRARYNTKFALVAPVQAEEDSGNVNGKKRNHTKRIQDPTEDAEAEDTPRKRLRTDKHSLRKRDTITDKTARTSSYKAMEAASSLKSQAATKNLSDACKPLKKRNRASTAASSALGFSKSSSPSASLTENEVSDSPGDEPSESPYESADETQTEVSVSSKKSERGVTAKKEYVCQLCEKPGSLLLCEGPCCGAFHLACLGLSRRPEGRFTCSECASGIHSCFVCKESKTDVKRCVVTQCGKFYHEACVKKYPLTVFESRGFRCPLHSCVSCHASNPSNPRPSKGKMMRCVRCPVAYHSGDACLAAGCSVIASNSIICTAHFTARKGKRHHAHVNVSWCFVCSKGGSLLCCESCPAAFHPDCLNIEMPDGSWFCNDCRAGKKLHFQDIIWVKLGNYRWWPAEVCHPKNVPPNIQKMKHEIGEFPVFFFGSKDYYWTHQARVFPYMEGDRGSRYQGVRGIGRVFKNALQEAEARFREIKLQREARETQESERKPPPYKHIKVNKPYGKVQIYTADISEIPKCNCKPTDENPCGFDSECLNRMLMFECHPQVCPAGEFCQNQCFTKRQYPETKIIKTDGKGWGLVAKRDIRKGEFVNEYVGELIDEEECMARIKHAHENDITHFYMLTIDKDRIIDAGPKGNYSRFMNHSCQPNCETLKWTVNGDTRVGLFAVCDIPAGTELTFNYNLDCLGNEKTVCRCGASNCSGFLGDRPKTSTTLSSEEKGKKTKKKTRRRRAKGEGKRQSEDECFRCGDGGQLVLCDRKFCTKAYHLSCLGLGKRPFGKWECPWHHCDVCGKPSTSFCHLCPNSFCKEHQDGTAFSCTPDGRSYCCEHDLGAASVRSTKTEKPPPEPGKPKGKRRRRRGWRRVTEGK
# Method Summary: Inhibition of NSD2 (unknown origin) at 50 uM relative to control
Quantity Name: inhibition (%)
Could you give me the number in %? Just the number is fine.

Reference set (4 entries):
COC(=O)c1cc(NC(=O)Nc2ccc3nnsc3c2)cc(C(=O)OC)c1: 95
O=C(Nc1cccc([N+](=O)[O-])c1)Nc1ccc2nnsc2c1: 96
CC(=O)c1ccc(-c2cc(NC(=O)Nc3ccc4nnsc4c3)cc(C(F)(F)F)c2)s1: 99
C=CC(=O)Nc1cc(NC(=O)Nc2ccc3nnsc3c2)cc(C(=O)OC)c1: 92

// fetch inhibition given entry `N#Cc1cccc(NC(=O)Nc2ccc3nnsc3c2)c1` 92
